Entry source: ChEMBL document CHEMBL1156857

# System: Hepatitis C virus
# experimental protocol: Antiviral activity against Hepatitis C virus subtype 1b infected in human Huh7 cells assessed as inhibition of viral RNA replication
# Format: functional, organism-based, Hepacivirus hominis, genotype 1b, Huh-7
# measurement setup: Hepatitis C virus, genotype 1b, Huh-7; read-out: EC50
pEC50: −log10 of the molar value.
We begin with a simple list: items and their reported pEC50.
readout type: pEC50

1) CN(C)C(=O)Cn1c(-c2ccccn2)c(C2CCCCC2)c2ccc(C(=O)O)cc21 = 5.47
2) O=C(O)c1ccc2c(C3CCCCC3)c(-c3ccoc3)n(CC(=O)N3CCC(CCO)CC3)c2c1 = 5.89
3) CN(C)CCN(C)C(=O)Cn1c(-c2ccoc2)c(C2CCCCC2)c2ccc(C(=O)O)cc21 = 6.36
4) CN(C)C(=O)Cn1c(-c2ccco2)c(C2CCCCC2)c2ccc(C(=O)O)cc21 = 5.82
5) CN(C)C(=O)Cn1c(-c2ccccc2)c(C2CCCCC2)c2ccc(C(=O)O)cc21 = 5.85
6) O=C(O)c1ccc2c(C3CCCCC3)c(-c3ccco3)n(CC(=O)N3CCOCC3)c2c1 = 6.00
7) O=C(O)c1ccc2c(C3CCCCC3)c(-c3ccoc3)n(CC(=O)N3CCN(CCO)CC3)c2c1 = 5.89
8) NC(=O)Cn1c(-c2ccoc2)c(C2CCCCC2)c2ccc(C(=O)O)cc21 = 5.62

* * *

# experimental protocol: Half life in human liver microsomes at 2 uM
# Format: ADME, Microsome
readout type: half-life at 2 µM

1. O=C(O)c1ccc2c(C3CCCCC3)c(-c3ccoc3)n(CC(=O)N3CCOCC3)c2c1 = > 5 h
2. CC(C)N1CCN(C(=O)Cn2c(-c3ccoc3)c(C3CCCCC3)c3ccc(C(=O)O)cc32)CC1 = > 5 h
3. O=C(O)c1ccc2c(C3CCCCC3)c(-c3cccs3)n(CC(=O)N3CCC(N4CCCC4)CC3)c2c1 = > 5 h
4. CCN1CCN(C(=O)Cn2c(-c3ccoc3)c(C3CCCCC3)c3ccc(C(=O)O)cc32)CC1 = > 5 h
5. O=C(O)c1ccc2c(C3CCCCC3)c(-c3ccoc3)n(CC(=O)N3CCC(N4CCCC4)CC3)c2c1 = > 5 h
6. CN1CCC(N(C)C(=O)Cn2c(-c3ccoc3)c(C3CCCCC3)c3ccc(C(=O)O)cc32)CC1 = > 5 h

* * *

# Test system: Hepatitis C virus
# experimental protocol: Antiviral activity against Hepatitis C virus subtype 1b infected in human Huh7 cells assessed as inhibition of viral RNA replication
# Assay type: functional, organism-based, Hepacivirus hominis, genotype 1b, Huh-7
# measurement setup: Hepatitis C virus, genotype 1b, Huh-7; read-out: EC50
pEC50: −log10 of the molar value.
The threshold is inclusive: pEC50 of exactly 6 counts as 1; values below receive -1.

1) Cn1c(-c2ccoc2)c(C2CCCCC2)c2ccc(C(=O)O)cc21 = -1
2) CCn1c(-c2ccoc2)c(C2CCCCC2)c2ccc(C(=O)O)cc21 = -1
3) O=C(O)c1ccc2c(C3CCCCC3)c(-c3cccs3)n(CC(=O)N3CCC(N4CCCC4)CC3)c2c1 = 1
4) C=C(C)n1c(-c2ccoc2)c(C2CCCCC2)c2ccc(C(=O)O)cc21 = -1
5) CC(C)N(C(=O)Cn1c(-c2ccoc2)c(C2CCCCC2)c2ccc(C(=O)O)cc21)C(C)C = -1
6) CN(CCc1ccncc1)C(=O)Cn1c(-c2ccoc2)c(C2CCCCC2)c2ccc(C(=O)O)cc21 = 1
7) CN1CCCN(C(=O)Cn2c(-c3ccoc3)c(C3CCCCC3)c3ccc(C(=O)O)cc32)CC1 = 1
8) C=CCn1c(-c2ccoc2)c(C2CCCCC2)c2ccc(C(=O)O)cc21 = -1
9) Nc1cccc(Cn2c(-c3ccoc3)c(C3CCCCC3)c3ccc(C(=O)O)cc32)c1 = -1
10) O=C(O)c1ccc2c(C3CCCCC3)c(-c3ccoc3)n(CC(=O)N3CCC(C(=O)O)CC3)c2c1 = -1
11) CCN(CC)CCN(C)C(=O)Cn1c(-c2ccoc2)c(C2CCCCC2)c2ccc(C(=O)O)cc21 = 1
12) O=C(O)c1ccc2c(C3CCCCC3)c(-c3ccoc3)n(CC(=O)N3CCC(N4CCCC4)CC3)c2c1 = 1
